Origin of the recorded values: patent US20250084172A1

- tgt: T1, cynomolgus soluble ULBP5 (cULBP5) (cynomolgus)
- T1 construct: also called Cyno-cULBP5
- T1 chain: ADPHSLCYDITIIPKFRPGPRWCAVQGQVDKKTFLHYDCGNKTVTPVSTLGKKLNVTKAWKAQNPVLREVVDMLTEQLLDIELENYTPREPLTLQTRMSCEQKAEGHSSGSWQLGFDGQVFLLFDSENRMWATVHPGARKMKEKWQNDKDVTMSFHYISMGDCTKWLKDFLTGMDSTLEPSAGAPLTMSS
- measurement-notes: SPR (BIACORE 8K, 37 C); antibody captured on Protein A, soluble ULBP injected;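 note: ligand injected as threefold dilution series in HBS-P (highest 10 or 50 nM), reference-cell and buffer-subtracted sensorgrams fitted with a 1:1 Langmuir model for on and off rates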
measurement-name: kon (M⁻¹ s⁻¹)
Numbers only, in M⁻¹ s⁻¹.

In plain terms, humanized 8E11 (h8E11), Fc version not stated (antibody, V domains shown, Recombinant humanized antibody, hIgG1 backbone with kappa light chain; also called PUR3926) VH: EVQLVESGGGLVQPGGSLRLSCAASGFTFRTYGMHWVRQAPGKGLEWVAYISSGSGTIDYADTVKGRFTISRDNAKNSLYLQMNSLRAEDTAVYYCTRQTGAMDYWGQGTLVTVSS VL: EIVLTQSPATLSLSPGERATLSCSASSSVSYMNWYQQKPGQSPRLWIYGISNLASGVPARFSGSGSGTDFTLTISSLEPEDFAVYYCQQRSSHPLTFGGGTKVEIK has a documented kon of 139000
